- Assay explanation: qHTS drug screen for cell cycle checkpoint inhibitors in PARPi-resistant BRCA-mutant ovarian cancer cell lines. (AID 1963452)
- Run conditions: PEO1/OlaR viability, CellTiter-Glo luminescence, 96 h; active compounds read low
Starred links: 1 amine or outer side, 2 acyl side, 3 side chain; linkers in the order of their positions; H or OH if unused. Positions of bridges follow the written chain, without caps; N, C: chain ends. Non-standard residues stand in square brackets, D forms with d. Residues, ends and D or L forms follow the SMILES beside them. Chains are numbered I, II in the order given. Actinocin(9to1) = Cc1c2oc3c(C)ccc(C(=O)[*:1])c3nc-2c(C(=O)[*:2])c(N)c1=O; NMeV = CN[CH](C(=O)O)C(C)C; Sar = CNCC(=O)O
Z-AUC under 0.02 gets yes (1), anything at or over 0.02 gets no (0).

Given the entry "O=C(CN1C(=O)C2(CCCC2)NC[C@H]1c1cc(F)cc(F)c1)Nc1ccc2c(c1)C[C@@]1(C2)C(=O)Nc2ncccc21" , would its reported Z-AUC be below 0.02?
no (0)

Given the entry "CN1C(C(=O)Nc2ccccn2)=C(O)c2sc(Cl)cc2S1(=O)=O" , would its reported Z-AUC be below 0.02?
no (0)

Given the entry "Nc1ccc(C(=O)Nc2cccc(-c3nc(N4CCOCC4)c4oc5ncccc5c4n3)c2)cn1" , would its reported Z-AUC be below 0.02?
no (0)

Given the entry "c1cncc(CN2CCC(n3ncc4c(N5CCOCC5)nc(-c5ccc6[nH]ccc6c5)nc43)CC2)c1" , would its reported Z-AUC be below 0.02?
yes (1)

Given the entry "Nc1ccn(C[C@@H](CO)OCP(=O)(O)O)c(=O)n1" , would its reported Z-AUC be below 0.02?
yes (1)

Given the entry Oc1cc2c(cc1O)C1c3ccc(O)c(O)c3OCC1(O)C2 (stereo unspecified) , would its reported Z-AUC be below 0.02?
no (0)

Given the entry "CCCCOc1ccc(C(=O)Nc2ccc(F)cc2F)cc1" , would its reported Z-AUC be below 0.02?
yes (1)

Given the entry "COc1cc(CCc2cc(NC(=O)c3ccc(N4C[C@@H](C)N[C@@H](C)C4)cc3)n[nH]2)cc(OC)c1" , would its reported Z-AUC be below 0.02?
yes (1)

Given the entry "FC(F)(F)c1ccc(Nc2nc3ccc(Oc4ccnc(-c5ncc(C(F)(F)F)[nH]5)c4)cc3[nH]2)cc1" , would its reported Z-AUC be below 0.02?
yes (1)

Given the entry "CN(C)c1ccc(C(=O)NCCCCCCC(=O)NO)cc1" , would its reported Z-AUC be below 0.02?
yes (1)

Given the entry "Cn1cnc2c(F)c(Nc3ccc(Br)cc3F)c(C(=O)NOCCO)cc21" , would its reported Z-AUC be below 0.02?
yes (1)

Given the entry "O=[N+]([O-])c1cn2c(n1)OC[C@@H](OCc1ccc(OC(F)(F)F)cc1)C2" , would its reported Z-AUC be below 0.02?
no (0)

Given the entry "CCOc1cc2c(c(F)c1OCC)C(=N)N(CC(=O)c1cc(N3CCOCC3)c(OC)c(C(C)(C)C)c1)C2" , would its reported Z-AUC be below 0.02?
yes (1)

Given the entry "Cc1cnc(Nc2ccc(N3CCN(C)CC3)cc2)nc1Nc1cccc(S(=O)(=O)NC(C)(C)C)c1" , would its reported Z-AUC be below 0.02?
yes (1)

Given the entry "Cc1cc(C(=O)NOCCO)c(Nc2ccc(I)cc2F)n(C)c1=O" , would its reported Z-AUC be below 0.02?
yes (1)

Given the entry "C[C@H]1COc2c(N3CCN(C)CC3)c(F)cc3c(=O)c(C(=O)O)cn1c23" , would its reported Z-AUC be below 0.02?
yes (1)

Given the entry "CCCNS(=O)(=O)Nc1ncnc(OCCOc2ncc(Br)cn2)c1-c1ccc(Br)cc1" , would its reported Z-AUC be below 0.02?
no (0)

Given the entry "Cn1cnc(=N)c2[nH]cnc21" , would its reported Z-AUC be below 0.02?
no (0)

Given the entry CCOC(=O)C1=C(C)NC(=S)NC1c1cccc(O)c1 (stereo unspecified) , would its reported Z-AUC be below 0.02?
no (0)

Given the entry "CN(C)CC(=O)N1CCC(c2ccc(NC(=O)c3ncc(C#N)[nH]3)c(C3=CCCCC3)c2)CC1" , would its reported Z-AUC be below 0.02?
yes (1)

Given the entry C[C@@H]1C(=O)O[C@H]2CC34[C@H]5C[C@@H](C(C)(C)C)C36[C@H](OC(=O)[C@@H]6O)O[C@@]4(C(=O)O5)[C@]21O (stereo partly specified) , would its reported Z-AUC be below 0.02?
no (0)

Given the entry "CC(C)c1cnn2c(NCc3ccccc3)cc(NCCCCCCN)nc12" , would its reported Z-AUC be below 0.02?
no (0)

Given the entry Cc1c2oc3c(C)ccc(C(=O)NC4C(=O)NC(C(C)C)C(=O)N5CCCC5C(=O)N(C)CC(=O)N(C)C(C(C)C)C(=O)OC4C)c3nc-2c(C(=O)NC2C(=O)NC(C(C)C)C(=O)N3CCCC3C(=O)N(C)CC(=O)N(C)C(C(C)C)C(=O)OC2C)c(N)c1=O (stereo unspecified) (I: TVP[Sar][NMeV] / II: TVP[Sar][NMeV]; ester I:1-I:C, II:1-II:C; linker I:N-II:N via Actinocin(9to1); configuration not given here) , would its reported Z-AUC be below 0.02?
yes (1)

Given the entry "Cc1cc(O)c2c(c1)C(=O)c1cccc(O)c1C2=O" , would its reported Z-AUC be below 0.02?
yes (1)

Given the entry "c1coc(CNc2ncnc3nc[nH]c23)c1" , would its reported Z-AUC be below 0.02?
no (0)

Given the entry "Cc1ccc(-n2[nH]c(C)c(N=Nc3cccc(-c4cccc(C(=O)O)c4)c3O)c2=O)cc1C" , would its reported Z-AUC be below 0.02?
yes (1)

Given the entry COc1cc(O)c2c(c1)C1OC1C[C@H](O)[C@H](O)C(=O)C=CC[C@H](C)OC2=O (stereo partly specified) , would its reported Z-AUC be below 0.02?
no (0)

Given the entry "Cn1c(Nc2ccc(C(F)(F)F)cc2)nc2cc(Oc3ccnc(-c4ncc(C(F)(F)F)[nH]4)c3)ccc21" , would its reported Z-AUC be below 0.02?
yes (1)

Given the entry "c1ccc(CNc2nc(NCc3ccccc3)c3ccccc3n2)cc1" , would its reported Z-AUC be below 0.02?
no (0)

Given the entry "NC(=O)N1CCC(CC(=O)N2CCC([C@H]3c4ncc(Br)cc4CCc4cc(Cl)cc(Br)c43)CC2)CC1" , would its reported Z-AUC be below 0.02?
yes (1)

Given the entry "Oc1ccc(-c2ccc(-c3cc(Nc4cccc(CNC5CC5)c4)n[nH]3)cc2)c(O)c1" , would its reported Z-AUC be below 0.02?
yes (1)

Given the entry "Nc1nc(=O)n([C@H]2C[C@H](O)[C@@H](CO)O2)cc1F" , would its reported Z-AUC be below 0.02?
yes (1)

Given the entry "c1cc(N[C@@H]2CCNC2)nc(-c2cnc3ccc(-c4cn[nH]c4)cn23)c1" , would its reported Z-AUC be below 0.02?
yes (1)

Given the entry "O=c1ccn([C@@H]2O[C@H](CO)[C@H](O)[C@@H]2F)c(=O)[nH]1" , would its reported Z-AUC be below 0.02?
no (0)

Given the entry C[C@](Cc1c[nH]c2ccccc12)(NC(=O)OC1C2CC3CC(C2)CC1C3)C(=O)NC[C@H](NC(=O)CCC(=O)O)c1ccccc1 (stereo partly specified) , would its reported Z-AUC be below 0.02?
yes (1)

Given the entry CC(=O)SCC(Cc1ccccc1)C(=O)NCC(=O)OCc1ccccc1 (stereo unspecified) , would its reported Z-AUC be below 0.02?
no (0)

FYI, the data here is from PubChem BioAssay (NCATS).
